Assay: Blood levels in mice after subcutaneous administration
Assay type: in vivo
Conditions: mouse, sc 40 mg./kg., 15', read-out: Blood level
Method: Groups of mice were administered subcutaneously graded doses of 40, 20 and 10 mg./kg..

| Compound | concentration at 0.25 h, ng/mL |
| --- | --- |
| Cn1nnnc1SCC1=C(C(=O)O)N2C(=O)[C@@H](NC(=O)[C@H](O)c3ccccc3)[C@H]2SC1 [Cefamandole, cefamandole, reference compound] | 18000 |
| O=C(O)Cn1nc2ccc(SCC3=C(C(=O)O)N4C(=O)C(NC(=O)[C@H](O)c5ccccc5)[C@H]4SC3)nn2c1=O (some centres unmarked) | 19000 |
